Listing: Events During the 90 days (AKI) of selected compounds
# Test system: diabetes mellitus patients
# Assay name: Acute kidney injury
# Assay type: in vivo, human
# Experimental parameters: primary endpoint, first 90 days; patients above 55 years

Here's what some known entries look like.
Compound | Events During the 90 days (AKI)
OC[C@H]1O[C@@H](c2ccc(Cl)c(Cc3ccc(O[C@H]4CCOC4)cc3)c2)[C@H](O)[C@@H](O)[C@@H]1O | 57
CC#CCn1c(N2CCC[C@@H](N)C2)nc2c1c(=O)n(Cc1nc(C)c3ccccc3n1)c(=O)n2C | 56
Cc1ccc(-c2cc(C(F)(F)F)nn2-c2ccc(S(N)(=O)=O)cc2)cc1 | 112
CC1=C(C(=O)O)N2C(=O)[C@@H](NC(=O)[C@H](N)c3ccccc3)[C@H]2SC1 | 50
CC(C)Cc1ccc(C(C)C(=O)O)cc1 (stereo not drawn) | 124

Query compound follows.
IN: # Events During the 90 days (AKI) lookup, item `Cc1ccc([C@@H]2O[C@H](CO)[C@@H](O)[C@H](O)[C@H]2O)cc1Cc1ccc(-c2ccc(F)cc2)s1`
OUT: 66

----------
# Experimental parameters: normal mice, oral gavage, 3mg/kg; Liver; 9h
Quantity name: Drug concentration, time course
Just the number, please, no unit attached.

Here is how some molecules turned out for Drug concentration, time course.
Molecule | Quantity name | Readout number
CC#CCn1c(N2CCC[C@@H](N)C2)nc2c1c(=O)n(Cc1nc(C)c3ccccc3n1)c(=O)n2C [Linagliptin, linagliptin] | Drug concentration, time course | 1200
CC1(C)S[C@@H]2[C@H](NC(=O)[C@H](N)c3ccc(O)cc3)C(=O)N2[C@H]1C(=O)O [Amoxicillin, amoxicillin] | Drug concentration, time course | 1350
N#C[C@@H]1CCCN1C(=O)CNC12CC3CC(CC(O)(C3)C1)C2 [Vildagliptin, vildagliptin] | Drug concentration, time course | 2900
CC1=C(C(=O)O)N2C(=O)[C@@H](NC(=O)[C@H](N)c3ccccc3)[C@H]2SC1 [Cephalexin, cephalexin] | Drug concentration, time course | 4550
Cc1ccc([C@@H]2O[C@H](CO)[C@@H](O)[C@H](O)[C@H]2O)cc1Cc1ccc(-c2ccc(F)cc2)s1 [Canagliflozin, canagliflozin] | Drug concentration, time course | 600

IN: What value of measured Drug concentration, time course is listed for CC(C)Cc1ccc(C(C)C(=O)O)cc1 (centres unmarked) [Ibuprofen, ibuprofen] ?
OUT: 1800

IN: Would you mind doing OC[C@H]1O[C@@H](c2ccc(Cl)c(Cc3ccc(O[C@H]4CCOC4)cc3)c2)[C@H](O)[C@@H](O)[C@@H]1O [Jardiance] as well?
OUT: 400

IN: Please answer likewise for Cc1ccc(-c2cc(C(F)(F)F)nn2-c2ccc(S(N)(=O)=O)cc2)cc1 [Celecoxib, celecoxib]
OUT: 6250

IN: What would you report for Cn1c(=O)cc(N2CCC[C@@H](N)C2)n(Cc2ccccc2C#N)c1=O [Alogliptin, alogliptin] ?
OUT: 1980

IN: Another molecule: COc1ccc2c(c1)c(CC(=O)O)c(C)n2C(=O)c1ccc(Cl)cc1 [Indomethacin, indomethacin]
OUT: 5400

IN: Try OC[C@H]1O[C@@H](c2ccc(F)c(Cc3cc4ccccc4s3)c2)[C@H](O)[C@@H](O)[C@@H]1O [Ipragliflozin, ipragliflozin] next.
OUT: 1200

----------
# Test system: diabetes mellitus patients
# Assay name: Acute kidney injury
# Format: in vivo, human
# Experimental parameters: secondary endpoint, after 90 days of hospital admission
Quantity name: Events at secondary end (AKI)
// response body must contain only the number

Known Events at secondary end (AKI) results, listed for orientation:
Compound | Measured on | Quantity name | Readout number
N#C[C@@H]1CCCN1C(=O)CNC12CC3CC(CC(O)(C3)C1)C2 [Vildagliptin, vildagliptin] | diabetes mellitus patients | Events at secondary end (AKI) | 237
OC[C@H]1O[C@@H](c2ccc(Cl)c(Cc3ccc(O[C@H]4CCOC4)cc3)c2)[C@H](O)[C@@H](O)[C@@H]1O [Jardiance] | diabetes mellitus patients | Events at secondary end (AKI) | 220
CC1=C(C(=O)O)N2C(=O)[C@@H](NC(=O)[C@H](N)c3ccccc3)[C@H]2SC1 [Cephalexin, cephalexin] | diabetes mellitus patients | Events at secondary end (AKI) | 283
CC1(C)S[C@@H]2[C@H](NC(=O)[C@H](N)c3ccc(O)cc3)C(=O)N2[C@H]1C(=O)O [Amoxicillin, amoxicillin] | diabetes mellitus patients | Events at secondary end (AKI) | 245
Cc1ccc(-c2cc(C(F)(F)F)nn2-c2ccc(S(N)(=O)=O)cc2)cc1 [Celecoxib, celecoxib] | diabetes mellitus patients | Events at secondary end (AKI) | 421

IN: Sample CN(C)C(=N)N=C(N)N [Metformin, metformin] — what was its Events at secondary end (AKI)?
OUT: 261

IN: Thanks! And OC[C@H]1O[C@@H](c2ccc(F)c(Cc3cc4ccccc4s3)c2)[C@H](O)[C@@H](O)[C@@H]1O [Ipragliflozin, ipragliflozin] ?
OUT: 211

IN: Consider next the compound Cc1ccc([C@@H]2O[C@H](CO)[C@@H](O)[C@H](O)[C@H]2O)cc1Cc1ccc(-c2ccc(F)cc2)s1 [Canagliflozin, canagliflozin] in the same way.
OUT: 201

IN: Next: COc1ccc2c(c1)c(CC(=O)O)c(C)n2C(=O)c1ccc(Cl)cc1 [Indomethacin, indomethacin]
OUT: 391

IN: Thanks! And CC(C)Cc1ccc(C(C)C(=O)O)cc1 (stereo not shown) [Ibuprofen, ibuprofen] ?
OUT: 433

----------
# Test system: diabetes mellitus patients
# Assay name: Acute kidney injury
# Assay type: in vivo, human
# Experimental parameters: Secondary Diagnosis with 3919 Outcomes; metformin as reference
Quantity name: Association with AKI, Unadjusted (95% CI)

Compound | Result
Cc1ccc(-c2cc(C(F)(F)F)nn2-c2ccc(S(N)(=O)=O)cc2)cc1 [Celecoxib, celecoxib] | 1.87 (1.64–2.43)
OC[C@H]1O[C@@H](c2ccc(F)c(Cc3cc4ccccc4s3)c2)[C@H](O)[C@@H](O)[C@@H]1O [Ipragliflozin, ipragliflozin] | 0.84 (0.69–1.16)
CC(C)Cc1ccc(C(C)C(=O)O)cc1 (centres unmarked) [Ibuprofen, ibuprofen] | 2.68 (2.21–3.03)

IN: What value of Association with AKI, Unadjusted (95% CI) has been recorded for this entry: Cn1c(=O)cc(N2CCC[C@@H](N)C2)n(Cc2ccccc2C#N)c1=O [Alogliptin, alogliptin]
OUT: 2.27 (1.08–3.12)

IN: Okay, and CC#CCn1c(N2CCC[C@@H](N)C2)nc2c1c(=O)n(Cc1nc(C)c3ccccc3n1)c(=O)n2C [Linagliptin, linagliptin] ?
OUT: 0.87 (0.72–1.21)

----------
# Experimental parameters: normal mice, oral gavage, 3mg/kg; Liver; 15h
// reported Drug concentration, time course for each item listed
Lab note: jot the number down without any unit.

Molecule | Drug concentration, time course
OC[C@H]1O[C@@H](c2ccc(Cl)c(Cc3ccc(O[C@H]4CCOC4)cc3)c2)[C@H](O)[C@@H](O)[C@@H]1O | 0
Cc1ccc([C@@H]2O[C@H](CO)[C@@H](O)[C@H](O)[C@H]2O)cc1Cc1ccc(-c2ccc(F)cc2)s1 | 0
OC[C@H]1O[C@@H](c2ccc(F)c(Cc3cc4ccccc4s3)c2)[C@H](O)[C@@H](O)[C@@H]1O | 50
CC#CCn1c(N2CCC[C@@H](N)C2)nc2c1c(=O)n(Cc1nc(C)c3ccccc3n1)c(=O)n2C | 50
COc1ccc2c(c1)c(CC(=O)O)c(C)n2C(=O)c1ccc(Cl)cc1 | 150

IN: Consider the molecule shown here: CC(C)Cc1ccc(C(C)C(=O)O)cc1 (centres unmarked) What is its recorded Drug concentration, time course?
OUT: 150

IN: Then what about the molecule `CC1=C(C(=O)O)N2C(=O)[C@@H](NC(=O)[C@H](N)c3ccccc3)[C@H]2SC1` ?
OUT: 340

IN: Also `N#C[C@@H]1CCCN1C(=O)CNC12CC3CC(CC(O)(C3)C1)C2` , if possible.
OUT: 50

----------
# Experimental parameters: normal mice, oral gavage, 3mg/kg; Plasma; 3h
Listed here: items and their measured Drug concentration, time course.
When you answer, write just the number.

Molecule | Readout number
CC1=C(C(=O)O)N2C(=O)[C@@H](NC(=O)[C@H](N)c3ccccc3)[C@H]2SC1 | 360
CC#CCn1c(N2CCC[C@@H](N)C2)nc2c1c(=O)n(Cc1nc(C)c3ccccc3n1)c(=O)n2C | 450
OC[C@H]1O[C@@H](c2ccc(F)c(Cc3cc4ccccc4s3)c2)[C@H](O)[C@@H](O)[C@@H]1O | 300
OC[C@H]1O[C@@H](c2ccc(Cl)c(Cc3ccc(O[C@H]4CCOC4)cc3)c2)[C@H](O)[C@@H](O)[C@@H]1O | 500

IN: Please give the measured Drug concentration, time course for this molecule: `Cc1ccc(-c2cc(C(F)(F)F)nn2-c2ccc(S(N)(=O)=O)cc2)cc1`
OUT: 250

IN: Would you mind doing `Cn1c(=O)cc(N2CCC[C@@H](N)C2)n(Cc2ccccc2C#N)c1=O` as well?
OUT: 400

IN: Again, but for `N#C[C@@H]1CCCN1C(=O)CNC12CC3CC(CC(O)(C3)C1)C2`
OUT: 7500
